Reported PBM E-score is given for each of the following sequences.
SUBJECT OF TEST: Abf1 (UniProt P14164)
Sequence: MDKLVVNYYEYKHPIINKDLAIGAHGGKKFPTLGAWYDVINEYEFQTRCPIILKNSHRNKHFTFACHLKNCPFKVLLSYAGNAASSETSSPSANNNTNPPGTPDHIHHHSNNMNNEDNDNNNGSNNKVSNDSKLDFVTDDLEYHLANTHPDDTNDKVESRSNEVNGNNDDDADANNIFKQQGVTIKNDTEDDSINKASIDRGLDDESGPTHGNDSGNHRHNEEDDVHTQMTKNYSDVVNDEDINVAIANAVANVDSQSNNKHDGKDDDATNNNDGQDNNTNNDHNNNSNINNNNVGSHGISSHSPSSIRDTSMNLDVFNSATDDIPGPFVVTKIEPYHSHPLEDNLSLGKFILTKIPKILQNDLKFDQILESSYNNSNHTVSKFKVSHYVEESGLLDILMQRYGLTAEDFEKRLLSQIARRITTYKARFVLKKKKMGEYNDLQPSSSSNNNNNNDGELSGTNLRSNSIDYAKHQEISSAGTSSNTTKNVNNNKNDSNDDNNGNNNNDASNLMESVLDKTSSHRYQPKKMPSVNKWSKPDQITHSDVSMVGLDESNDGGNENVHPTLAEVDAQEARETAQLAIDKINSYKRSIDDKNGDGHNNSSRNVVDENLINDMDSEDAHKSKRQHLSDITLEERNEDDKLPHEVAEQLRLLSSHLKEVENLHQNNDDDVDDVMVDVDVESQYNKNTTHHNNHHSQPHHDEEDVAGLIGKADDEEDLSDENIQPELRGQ
PROTOCOL TEXT: PBM E-score (8-mer binding enrichment) (E-score (-0.5 to 0.5)); higher = stronger / more preferred TF binding
RUN CONDITIONS: protein concentration: 200 nM; construct: GST-full length
The full ranking holds about 33,000 sequences; the median of “E-score (-0.5 to 0.5)” is about -0.015, and the highest 2% start at about 0.3. The entries come from a sample that favours the highest values as a whole.

Consider the following illustrative entries.
GACTGTGC 0.0177
TAGTGTCA 0.117
ATGATGAA 0.306
AGACGTTG 0.109
AGCACGAA 0.217

The sequence identified as `CGATGATC` registered its PBM E-score at 0.287

The sequence identified as `CGGATAGA` registered its PBM E-score at 0.147

The sequence identified as `CGTGATAA` registered its PBM E-score at 0.408

The sequence identified as `CGCACGAC` registered its PBM E-score at 0.242

The sequence identified as `GTTGATAA` registered its PBM E-score at 0.199

The sequence identified as `ATGAGTCA` registered its PBM E-score at 0.0874

The sequence identified as `AGATGATC` registered its PBM E-score at 0.176

The sequence identified as `CGCACGAA` registered its PBM E-score at 0.321

The sequence identified as `CCCGAGCC` registered its PBM E-score at -0.299

The sequence identified as `ATGATTGA` registered its PBM E-score at 0.346

The sequence identified as `GGATGATA` registered its PBM E-score at 0.31

The sequence identified as `CGGAAAGA` registered its PBM E-score at -0.131

The sequence identified as `CAGTGACC` registered its PBM E-score at 0.132

The sequence identified as `GGCACGAA` registered its PBM E-score at 0.103

The sequence identified as `GTTAGCGA` registered its PBM E-score at 0.32

The sequence identified as `GAGTGACA` registered its PBM E-score at 0.432

The sequence identified as `CGATGAGA` registered its PBM E-score at 0.19

The sequence identified as `TAGTGTGA` registered its PBM E-score at 0.137

The sequence identified as `GCAAAAAC` registered its PBM E-score at 0.0419

The sequence identified as `AAAGCCTT` registered its PBM E-score at -0.219

The sequence identified as `TGAGAGCA` registered its PBM E-score at -0.0853

---

Reported PBM E-score is given for each of the following sequences.
SUBJECT OF TEST: Abf1 (UniProt P14164)
Sequence: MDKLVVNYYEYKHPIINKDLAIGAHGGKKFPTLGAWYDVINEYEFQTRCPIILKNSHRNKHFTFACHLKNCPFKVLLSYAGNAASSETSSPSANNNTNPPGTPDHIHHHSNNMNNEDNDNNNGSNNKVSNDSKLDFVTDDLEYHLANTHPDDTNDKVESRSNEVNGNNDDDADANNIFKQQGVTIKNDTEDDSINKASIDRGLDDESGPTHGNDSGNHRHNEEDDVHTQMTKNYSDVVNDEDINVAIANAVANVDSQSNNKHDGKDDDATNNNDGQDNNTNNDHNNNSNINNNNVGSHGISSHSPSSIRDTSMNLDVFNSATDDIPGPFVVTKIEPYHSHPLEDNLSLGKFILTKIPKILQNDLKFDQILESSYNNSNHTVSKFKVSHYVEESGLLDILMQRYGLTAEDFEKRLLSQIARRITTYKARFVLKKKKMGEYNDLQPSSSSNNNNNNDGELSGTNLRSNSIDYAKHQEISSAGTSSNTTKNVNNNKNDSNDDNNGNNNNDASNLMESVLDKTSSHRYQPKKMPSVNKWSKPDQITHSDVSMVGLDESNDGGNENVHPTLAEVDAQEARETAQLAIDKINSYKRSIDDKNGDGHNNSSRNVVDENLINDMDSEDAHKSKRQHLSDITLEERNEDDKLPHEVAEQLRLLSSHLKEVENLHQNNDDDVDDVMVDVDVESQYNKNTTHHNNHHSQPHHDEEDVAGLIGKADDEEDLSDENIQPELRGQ
PROTOCOL TEXT: PBM E-score (8-mer binding enrichment) (E-score (-0.5 to 0.5)); higher = stronger / more preferred TF binding
RUN CONDITIONS: protein concentration: 200 nM; construct: GST-full length
The full ranking holds about 33,000 sequences; the median of “E-score (-0.5 to 0.5)” is about -0.015, and the highest 2% start at about 0.3. Many of the other results were omitted from the sample, so the highest values are more common in it than they were.
Response field accepts a number only; no unit should be typed.

Consider the following illustrative entries.
AGGACAAT 0.125
GAGGGACA -0.103
AAAATGGC 0.0419
AAGACAAT 0.138
ACGATCGT 0.319
CCTGGCGA -0.127

The sequence identified as `ATGTCAGC` registered its PBM E-score at 0.0322

The sequence identified as `AGACTTTA` registered its PBM E-score at 0.0584

The sequence identified as `ATTATCAC` registered its PBM E-score at 0.434

The sequence identified as `AACCAGCC` registered its PBM E-score at -0.0913

The sequence identified as `GCAGGTAC` registered its PBM E-score at -0.221

---

SUBJECT OF TEST: Abf1 (UniProt P14164)
Sequence: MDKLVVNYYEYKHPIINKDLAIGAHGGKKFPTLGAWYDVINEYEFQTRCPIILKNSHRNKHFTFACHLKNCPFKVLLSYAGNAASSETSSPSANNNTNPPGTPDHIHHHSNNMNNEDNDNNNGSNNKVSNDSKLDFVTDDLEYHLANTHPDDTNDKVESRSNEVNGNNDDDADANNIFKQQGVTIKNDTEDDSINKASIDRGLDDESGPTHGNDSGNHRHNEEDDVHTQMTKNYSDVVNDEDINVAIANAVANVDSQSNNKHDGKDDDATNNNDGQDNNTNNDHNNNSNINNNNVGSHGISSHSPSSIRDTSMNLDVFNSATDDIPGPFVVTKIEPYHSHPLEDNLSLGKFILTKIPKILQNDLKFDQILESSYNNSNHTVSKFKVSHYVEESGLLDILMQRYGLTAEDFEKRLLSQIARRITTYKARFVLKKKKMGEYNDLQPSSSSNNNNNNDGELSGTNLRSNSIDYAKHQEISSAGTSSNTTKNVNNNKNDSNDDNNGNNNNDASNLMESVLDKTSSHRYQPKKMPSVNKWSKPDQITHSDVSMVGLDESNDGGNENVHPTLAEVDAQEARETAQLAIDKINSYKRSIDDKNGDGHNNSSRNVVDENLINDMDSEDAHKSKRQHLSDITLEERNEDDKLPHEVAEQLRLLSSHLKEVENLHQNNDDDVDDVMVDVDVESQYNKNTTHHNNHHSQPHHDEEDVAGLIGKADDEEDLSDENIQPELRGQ
PROTOCOL TEXT: PBM E-score (8-mer binding enrichment) (E-score (-0.5 to 0.5)); higher = stronger / more preferred TF binding
RUN CONDITIONS: protein concentration: 200 nM; construct: GST-full length
Over roughly 33,000 sequences, “E-score (-0.5 to 0.5)” has its median near -0.015; the highest 2% begin near 0.3. Shown is part of a subset that was picked to be rich in the highest values.
We use 0.2 as the dividing line for PBM E-score: on or above the line is 1, below is -1.

ACCAAGAA -1
CATCACCA -1
GGGTGATA 1

Does PBM E-score meet or surpass 0.2 for `ATTACGGA` ?
1

Does PBM E-score meet or surpass 0.2 for `ATCATACG` ?
1

Does PBM E-score meet or surpass 0.2 for `GAATTAAA` ?
-1
